Target: Adenosine deaminase (from bovine spleen) (Bos taurus, UniProt P56658)
Construct: Adenosine deaminase (from bovine spleen in 3.2 M ammonium sulfate) was purchased from Sigma; purchased Sigma (St. Louis, MO, USA); host or cells: bovine spleen (tissue-derived)
Sequence (P56658 1-363): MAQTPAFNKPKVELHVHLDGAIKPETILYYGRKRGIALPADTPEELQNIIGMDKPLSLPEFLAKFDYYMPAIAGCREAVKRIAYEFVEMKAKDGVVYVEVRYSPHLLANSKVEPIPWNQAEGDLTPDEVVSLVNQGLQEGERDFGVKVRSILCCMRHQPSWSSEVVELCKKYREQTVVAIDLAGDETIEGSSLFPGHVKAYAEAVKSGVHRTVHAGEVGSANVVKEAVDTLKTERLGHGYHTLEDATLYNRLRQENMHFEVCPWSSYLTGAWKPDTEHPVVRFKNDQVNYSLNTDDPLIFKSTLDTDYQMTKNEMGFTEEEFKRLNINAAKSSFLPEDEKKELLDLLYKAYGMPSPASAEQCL
Assay: ADA enzyme inhibition by UV-vis spectrophotometry (Kaplan method, absorbance at 265 nm)
Assay type: biochemical
Details: pH 7.5, 37°C, phosphate buffer
measured.property: pIC50
Worth noting: pIC50 values are minus log10 of concentrations stated in mol/L.

-- ask pIC50 for `Cn1c([N+](=O)[O-])cnc1C#N` ?
-- reply 4.39
